The measured values listed here are drawn from PubChem BioAssay.

- experimental system: NADPH oxidase 5 (Homo sapiens) (UniProt Q96PH1)
- Sequence (Q96PH1 whole entry, looked up): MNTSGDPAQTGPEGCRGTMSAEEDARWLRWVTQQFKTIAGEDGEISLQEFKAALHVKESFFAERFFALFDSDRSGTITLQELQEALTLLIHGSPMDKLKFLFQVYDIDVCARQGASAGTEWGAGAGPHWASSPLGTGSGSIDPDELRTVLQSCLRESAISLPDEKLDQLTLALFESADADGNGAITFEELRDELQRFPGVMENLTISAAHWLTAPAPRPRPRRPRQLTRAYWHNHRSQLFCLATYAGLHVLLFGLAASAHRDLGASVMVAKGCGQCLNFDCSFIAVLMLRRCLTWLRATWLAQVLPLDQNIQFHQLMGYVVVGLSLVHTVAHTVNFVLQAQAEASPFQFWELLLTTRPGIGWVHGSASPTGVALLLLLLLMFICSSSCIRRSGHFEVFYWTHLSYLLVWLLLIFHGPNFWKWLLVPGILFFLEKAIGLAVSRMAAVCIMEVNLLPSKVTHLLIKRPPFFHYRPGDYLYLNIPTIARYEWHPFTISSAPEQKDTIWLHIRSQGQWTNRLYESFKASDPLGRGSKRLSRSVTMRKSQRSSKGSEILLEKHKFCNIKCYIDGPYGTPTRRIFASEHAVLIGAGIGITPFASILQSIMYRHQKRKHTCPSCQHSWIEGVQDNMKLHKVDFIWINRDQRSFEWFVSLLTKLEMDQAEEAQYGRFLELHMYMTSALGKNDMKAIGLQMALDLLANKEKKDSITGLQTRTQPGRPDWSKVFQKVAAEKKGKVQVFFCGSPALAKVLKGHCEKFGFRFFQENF
- method: NOX5-dependent H2O2 signal modulators, primary screen, NOX inhibitor project, cell-based, HEK293-NOX5, Amplex Red fluorescence (AID 1161)
- experimental parameters: HEK293-NOX5, ionomycin, 45 min, higher = more signal
measured attribute: z-score
Lab note: write the figure by itself, no unit.

Query block: Param item = C=C(/C(=C/C[C@H](OC(C)=O)c1ccccc1OCCO)c1cnc2ccccc2c1)C(C)C ; retrieve measured z-score.
Result block: -1.08

Query block: Can you look up the measured z-score of O=C1C[C@@](C(=O)NCC(F)(F)F)(c2ccc([N+](=O)[O-])cc2)[C@@H](c2ccc(CO)cc2I)N1C1CCCCC1 for me?
Result block: 0.612

Query block: Which z-score reading was recorded for the molecule CN(C)C(=O)[C@]1(Cc2ccccc2N=[N+]=[N-])N=C(c2ccc(OCCCO)cc2)O[C@@H]1c1ccccc1N=[N+]=[N-] ?
Result block: 0.199

Query block: Sample C=CCC(OC(C)=O)[C@@H]1[C@@H](N(Cc2ccc(-c3ccccc3)cc2)C(=O)Cc2ccc(OC)cc2)c2cc(OCCCO)ccc2N1C(=O)Cc1ccc2ccccc2c1 (some centres undefined) — what was its z-score?
Result block: 1.35

Query block: Fill blank: measured z-score of the molecule C=C(CCCC)/C(=C/C[C@@H](OC(=O)c1ccncc1)c1ccc(OCCO)cc1)c1cc(C(=O)OC)ccc1OC is ____.
Result block: -1.9

Query block: z-score lookup needed for COC(=O)[C@@]1(Cc2ccc(OC)cc2)[C@H]2c3cc(C(=O)N(C)C)n(Cc4ccc(S(C)(=O)=O)cc4)c3C[C@H]2CN1C(=O)c1ccccc1 , thanks.
Result block: -3.36

Query block: For the molecule COc1cc(Br)cc(C(O)C2C=CC3C(=O)N(C)C(=O)C3N2N2CCCCC2)c1OC (centres undefined) , what z-score is on record?
Result block: -0.637

Query block: Requested read-out: z-score. Entry: COCCOC(=O)N1C(=O)[C@@]2(c3cc(C#CCC(C(=O)OC)C(=O)OC)ccc31)[C@H](c1ccccc1OCCO)N1[C@H](c3ccccc3)[C@H](c3ccccc3)OC(=O)[C@H]1[C@@H]2C(=O)N1CCN(c2ncccn2)CC1
Result block: 1.27

Query block: May I ask what z-score has been recorded for COC(=O)[C@@]1(Cc2ccc(F)cc2)[C@H]2c3cc(C(=O)N4CCCC4)n(CCCNc4ncc(C(F)(F)F)cc4Cl)c3C[C@H]2CN1C(=O)c1ccccc1 ?
Result block: -0.307

Query block: Endpoint output: z-score of NC(=O)NCC#Cc1ccc2c(c1)[C@]1(C(=O)N2)[C@H](c2ccccc2OCCO)N2[C@H](c3ccccc3)[C@H](c3ccccc3)OC(=O)[C@H]2[C@@H]1C(=O)Nc1nc2ccccc2s1 . Value?
Result block: 0.883

Query block: What value of z-score has been recorded for this entry: CN1C(=O)C2C=CC(C(O)c3ccco3)N(Nc3ccccc3)C2C1=O (centres undefined)
Result block: -2.54

Query block: May I ask what z-score has been recorded for C[N+](C)(C)CCCCNC(=O)[C@H]1C[C@H]2C(=O)N3CCC[C@H]3C(=O)N2[C@H]1c1cccc(OCCO)c1 ?
Result block: -1.41

Query block: Item O=C(c1ccccc1)N1C(=O)[C@@]2(Cc3ccccc31)N=C(c1ccc(OCCCO)cc1)O[C@H]2c1ccccc1 has what recorded z-score?
Result block: -1.74

Query block: Tell me the measured z-score of CC(C)[Si](C#Cc1ccc(Oc2ccccc2)cc1)(O[Si](C#Cc1ccc(Oc2ccccc2)cc1)(C(C)C)C(C)C)C(C)C , please.
Result block: -1.34
